Origin of measurements: patent US5288743A

Tested on: LTB4 biosynthesis in human whole blood
experimentSummary: Inhibition of calcium ionophore A23187-induced LTB4 biosynthesis in human whole blood
Type: cell-based
conditionLabel: 0.5 h; human heparinized whole blood, A23187 50 μM, 30 minutes at 37° C., LTB4 by radioimmunoassay
pIC50: −log10 of the molar value.

compound	measuredOn	pIC50
CC(C)(C)Sc1c(CC(C)(C)C(=O)O)n(Cc2ccc(Cl)cc2)c2ccc(OCc3cccnc3)cc12 [Example 1]	LTB4 biosynthesis in human whole blood	5.96
CC(C)(C)Sc1c(CC(C)(C)C(=O)O)n(Cc2ccc(Cl)cc2)c2ccc(OCc3ccc(Cl)s3)cc12 [Example 6]	LTB4 biosynthesis in human whole blood	5.49
CC(C)(C)Sc1c(CC(C)(C)C(=O)O)n(Cc2ccc(Cl)cc2)c2ccc(OCc3ccncc3)cc12 [Example 2]	LTB4 biosynthesis in human whole blood	6.08
CC(C)(C)Sc1c(CC(C)(C)C(=O)O)n(Cc2ccc(Cl)cc2)c2ccc(OCc3ccc4ccccc4c3)cc12 [Example 4]	LTB4 biosynthesis in human whole blood	5.35
CC(C)(C)Sc1c(CC(C)(C)C(=O)O)n(Cc2ccc(Cl)cc2)c2ccc(OCc3cccs3)cc12 [Example 10]	LTB4 biosynthesis in human whole blood	5.85
Cc1cc(C)nc(COc2ccc3c(c2)c(SC(C)(C)C)c(CC(C)(C)C(=O)O)n3Cc2ccc(Cl)cc2)n1 [Example 7]	LTB4 biosynthesis in human whole blood	5.80
CC(C)(C)Sc1c(CC(C)(C)C(=O)O)n(Cc2ccc(Cl)cc2)c2ccc(OCc3ccccn3)cc12 [Example 3]	LTB4 biosynthesis in human whole blood	7.30
